Experiment: basal RPMI8226 viability, no added stimulus, profiling panel, cell-based, calcein-AM fluorescence, 48 h, PK04 Diversity Set (AID 1166);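 further: cells grown under basal conditions without added stimulus; test concentration not given here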
Settings: RPMI8226 myeloma viability, higher = more signal
Doc: threshold -0.5 (exclusive). Items with z-score beneath it return 1 (yes); others return 0 (no).

Determine if CCOC(=O)[C@H](Cc1ccccc1)NC(=O)CCC1CC(OC(=O)NCCc2ccc(F)cc2)CC2(CCCC(COC(=O)NCC(c3ccccc3)c3ccccc3)O2)O1 (some centres not stated) shows z-score strictly lower than -0.5.
1 (yes)

Determine if COCC1=C2[C@@H](CCc3ccccc3)OB(O)C[C@@H]2n2c(=O)n(-c3ccccc3)c(=O)n2C1 shows z-score strictly lower than -0.5.
0 (no)

Determine if CCCNC(=O)OC[C@H]1O[C@H](CCON=C[C@@H](OC)[C@H](C)C=CCC(=O)OC)C=C[C@@H]1Oc1ccc(OC)cc1 shows z-score strictly lower than -0.5.
0 (no)

Determine if CC(CCN1CCCCc2nc(C)c(C)cc21)=NOC(C)CN1CCCCc2nc(C)c(C)cc21 (configuration not stated) shows z-score strictly lower than -0.5.
1 (yes)

Determine if O=C1[C@H]2[C@H]3[C@H](O)[C@H](O)CC(=NOC[C@@H](O)COCc4ccco4)[C@H]3CC[C@H]2C(=O)N1C1CCCCC1 shows z-score strictly lower than -0.5.
1 (yes)

Determine if C[C@@H](c1ccccc1)N1C(=O)[C@H]2[C@H]3[C@H](O)C=CC(=O)[C@@H]3CC[C@H]2C1=O shows z-score strictly lower than -0.5.
0 (no)
